- Tested on: HepG2 cells
- PROTOCOL_DETAILS: MTT anti-proliferative assay, HepG2
- Assay type: cell-based, human
- CONDITIONS_USED: Homo sapiens, HepG2, 48 h, read-out: IC50 HepG2
PROPERTY_MEASURED: pIC50
In textbook form, pIC50 equals minus log to base ten of the concentration in mol/L.

Cc1ccc(NCSc2nnc(-c3nn(CNc4ccc(C)cc4)c(=O)c4ccccc34)o2)cc1 [Compound 7a] : 4.63
NS(=O)(=O)c1ccc(NC(=O)CSc2nnc(-c3n[nH]c(=O)c4ccccc34)o2)cc1 [Compound 4b] : 4.08

IN: Tell me pIC50 reported for O=c1[nH]nc(-c2nnc(S)o2)c2ccccc12 [Compound 1]
OUT: 5.35

IN: Tell me pIC50 reported for O=c1c2ccccc2c(-c2nnc(SCNc3ccc([N+](=O)[O-])cc3)o2)nn1CNc1ccc([N+](=O)[O-])cc1 [Compound 7e]
OUT: 5.15

Just for reference, paper PMC9048702 is where these values come from.
